Tested on: HL-60
Assay summary: Induction of HL60 cell differentiation in correlation with affinity to human VDR
Format: functional, cell-based
Activity calls are given as the source filed them. The calls are words filed in the database; no cut-off is given here.
API: response.call in label 1 for active, label 0 for inactive

Would you please look over these solved cases?
C=C1/C(=C\C=C2/CCC[C@]3(C)[C@@H]([C@H](C)CCCC(C)(C)O)CC[C@@H]23)C[C@@H](O)[C@H](CCC)[C@@H]1O: label 1
C=C1/C(=C\C=C2/CCC[C@]3(C)[C@@H]([C@H](C)CCCC(C)(C)O)CC[C@@H]23)C[C@@H](O)[C@H](OCCCO)[C@@H]1O: label 0

For this compound, state the assay outcome: `C=C1/C(=C\C=C2/CCC[C@]3(C)[C@@H]([C@H](C)CCCC(C)(C)O)CC[C@@H]23)C[C@@H](O)[C@H](C)[C@@H]1O`
label 1

How about this compound: `C=C1/C(=C\C=C2/CCC[C@]3(C)[C@@H]([C@H](C)CCCC(C)(C)O)CC[C@@H]23)C[C@H](O)[C@@H](OCCC)[C@H]1O`
label 0

Cool, now `C=C1/C(=C\C=C2/CCC[C@]3(C)[C@@H]([C@H](C)CCCC(C)(C)O)CC[C@@H]23)C[C@@H](O)[C@H](CCCO)[C@@H]1O`
label 1
